Data origin, for the record: ChEMBL document CHEMBL1129574

Form: system (Dihydroorotate dehydrogenase (quinone), mitochondrial (Rattus norvegicus, UniProt Q63707)), quantity (pIC50), values below.
// scale note: pIC50 = -log10(conc_M); give the bare number

Example entries begin here.
N#C/C(C(=O)Nc1ccc(Oc2ccc(C(F)(F)F)cc2)cc1)=C(/O)C1CC1 :: 5.45
N#CCc1ccc(NC(=O)/C(C#N)=C(\O)C2CC2)cc1 :: 5.34
N#C/C(C(=O)Nc1ccc(C(=O)c2ccc(Cl)cc2)cc1)=C(/O)C1CC1 :: 6.23
N#C/C(C(=O)Nc1cccc(Cl)c1)=C(/O)C1CC1 :: 6.46
N#C/C(C(=O)Nc1ccc(-c2ccc(F)cc2)cc1)=C(/O)C1CC1 :: 5.67

IN: Enter reported pIC50 observed with Dihydroorotate dehydrogenase (quinone), mitochondrial (Rattus norvegicus, UniProt Q63707) for N#C/C(C(=O)Nc1ccc(Oc2ccc(Cl)cc2)cc1)=C(/O)C1CC1
Sequence (Q63707 whole entry): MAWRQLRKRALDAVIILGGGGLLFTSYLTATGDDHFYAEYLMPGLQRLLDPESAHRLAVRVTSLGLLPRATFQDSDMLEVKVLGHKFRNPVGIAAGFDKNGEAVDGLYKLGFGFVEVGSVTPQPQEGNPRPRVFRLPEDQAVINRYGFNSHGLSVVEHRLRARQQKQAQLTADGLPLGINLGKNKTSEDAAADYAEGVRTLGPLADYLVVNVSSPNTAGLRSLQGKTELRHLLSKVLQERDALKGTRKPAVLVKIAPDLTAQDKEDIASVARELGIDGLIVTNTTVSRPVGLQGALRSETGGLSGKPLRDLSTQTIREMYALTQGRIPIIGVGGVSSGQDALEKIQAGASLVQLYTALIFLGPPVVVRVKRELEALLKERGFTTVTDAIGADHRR
OUT: 5.82

IN: Enter reported pIC50 observed with Dihydroorotate dehydrogenase (quinone), mitochondrial (Rattus norvegicus, UniProt Q63707) for Cc1ccc(NC(=O)/C(C#N)=C(\O)C2CC2)cc1Cl
OUT: 7.10

IN: Give the reported pIC50 for C#C/C(O)=C(\C#N)C(=O)Nc1ccc(C(F)(F)F)cc1 (system: Dihydroorotate dehydrogenase (quinone), mitochondrial (Rattus norvegicus, UniProt Q63707)).
OUT: 6.30

IN: Value wanted: pIC50 (Dihydroorotate dehydrogenase (quinone), mitochondrial (Rattus norvegicus, UniProt Q63707)) of entry N#C/C(C(=O)Nc1ccc(C(F)(F)F)cn1)=C(/O)C1CC1
OUT: 7.77

IN: Find the measured pIC50: item C/C=C/C(O)=C(\C#N)C(=O)Nc1ccc(C(F)(F)F)cc1 , target or system Dihydroorotate dehydrogenase (quinone), mitochondrial (Rattus norvegicus, UniProt Q63707).
OUT: 5.85

IN: Give pIC50 (Dihydroorotate dehydrogenase (quinone), mitochondrial (Rattus norvegicus, UniProt Q63707)) of the following molecule: CSc1ccc(NC(=O)/C(C#N)=C(\O)C2CC2)cc1
OUT: 7.89
